- SYSTEM: CYP1A2 (Homo sapiens, UniProt P05177)
- Sequence (P05177 1-516): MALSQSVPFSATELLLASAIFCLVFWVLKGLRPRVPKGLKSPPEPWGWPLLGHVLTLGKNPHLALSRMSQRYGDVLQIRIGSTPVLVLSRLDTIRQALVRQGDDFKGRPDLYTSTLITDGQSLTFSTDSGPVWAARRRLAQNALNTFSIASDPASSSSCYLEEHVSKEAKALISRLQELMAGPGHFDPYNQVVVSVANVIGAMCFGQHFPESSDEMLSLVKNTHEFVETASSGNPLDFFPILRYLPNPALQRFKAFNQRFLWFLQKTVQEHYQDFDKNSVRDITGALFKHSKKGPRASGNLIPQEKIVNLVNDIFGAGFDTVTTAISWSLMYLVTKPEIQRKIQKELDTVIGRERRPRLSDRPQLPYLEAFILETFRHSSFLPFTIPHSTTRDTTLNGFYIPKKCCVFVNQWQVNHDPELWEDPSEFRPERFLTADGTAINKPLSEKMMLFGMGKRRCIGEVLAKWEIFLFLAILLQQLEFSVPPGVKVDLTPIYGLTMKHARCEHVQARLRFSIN
- ASSAY TEXT: CYP1A2 inhibition, probe/drug metabolism in human liver microsomes (LC-MS/MS)
- TEST SETTINGS: human, human liver microsomes, pH 7.4, probe phenacetin 40 μM, Residual activity (%) CYP1A2, HLM 0.5 mg/mL, phenacetin 40 μM, 30 min
// thresholds for activity at 30 min classes: bottom = under 40%, middle = from 40% up to 80%, top = 80% and over

1) CC(CC(=O)CC(C)C1CC(=O)C2(C)C3=C(C(=O)CC12C)C1(C)CCC(=O)C(C)(CO)C1CC3O)C(=O)O (stereo not drawn) ... bottom
2) CC1(C)CCC2(C(=O)O)CCC3(C)C(=CC(=O)C4C5(C)CCC(O)C(C)(C)C5CCC43C)C2C1 (stereo not drawn) ... top
3) CC(CC(=O)CC(C)C1CC(O)C2(C)C3=C(C(=O)CC12C)C1(C)CCC(=O)C(C)(C)C1CC3=O)C(=O)O (stereo not drawn) ... middle
4) CC(CC(=O)CC(C)C1CC(O)C2(C)C3=C(C(=O)CC12C)C1(C)CCC(=O)C(C)(C)C1CC3)C(=O)O (stereo not drawn) ... middle
5) CC(=CC(=O)CC(C)C(=O)O)C1CC(=O)C2(C)C3=C(C(=O)C(O)C12C)C1(C)CCC(=O)C(C)(CO)C1CC3O (stereo not drawn) ... bottom
6) CC(CCC(O)C(C)(O)CO)C1CCC2(C)C3=C(C(=O)CC12C)C1(C)CCC(=O)C(C)(C)C1CC3 (stereo not drawn) ... top
7) CC(=CC(=O)CC(C)C(=O)O)C1CC(=O)C2(C)C3=C(C(=O)C(O)C12C)C1(C)CCC(O)C(C)(C)C1CC3=O (stereo not drawn) ... middle
8) CC(=O)OC1C(=O)C2=C(C(=O)CC3C2(C)CCC(O)C3(C)C)C2(C)C(=O)CC(C3(C)CCC(=O)O3)C12C (stereo not drawn) ... middle
